# Test system: Sam68 (KHDRBS1)
# measurement protocol: compounds binding KHDRBS1 protein – biochemical, small-molecule microarray, 635 nm fluorescence, primary screen (AID 1125);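 note: score merges 667 nm channel intensity with signal to noise over triplicate slides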
# test conditions: higher = more signal
The label depends only on composite z-score: Condition met if it is at least 0.6, Condition not met if it is smaller.

compound	assayed target	cat
Cc1ccc(S[C@]2(C(=O)NCc3ccccc3)CC(=O)N(Cc3cc(C(F)(F)F)cc(C(F)(F)F)c3)[C@@H]2c2ccc(CO)cc2)cc1	Sam68 (KHDRBS1)	Condition not met
C=CCN1Cc2ccccc2C[C@@]2(COC(c3ccc(OCCCO)cc3)=N2)C1=O	Sam68 (KHDRBS1)	Condition met
CC(C)(C)OC(=O)CC[C@@]1(C(=O)NCC(O)CO)N=C(c2ccc(OCCCO)cc2)O[C@@H]1c1ccccc1 (stereo not given in full)	Sam68 (KHDRBS1)	Condition met
COC(=O)[C@@]1(Cc2ccc(F)cc2)[C@H]2c3cc(C(=O)N(C)C)n(CCc4c[nH]c5ccc(OC)cc45)c3C[C@H]2CN1C(=O)c1ccccc1	Sam68 (KHDRBS1)	Condition met
C=CCC(OC(C)=O)[C@@H]1[C@@H](N(Cc2cc3ccccc3o2)C(=O)c2cccc3ccccc23)c2cc(OCCCO)ccc2N1C(=O)Cc1ccc(OC)cc1 (stereo not given in full)	Sam68 (KHDRBS1)	Condition not met
O[C@@H](Cc1ccccc1)[C@@H](/C=C/c1ccccc1)NCc1ccccc1Br	Sam68 (KHDRBS1)	Condition not met
COCCOC(=O)N1C(=O)[C@@]2(c3cc(C#CCC(C(=O)OC)C(=O)OC)ccc31)[C@H](c1ccc(OCCO)cc1)N1[C@H](c3ccccc3)[C@H](c3ccccc3)OC(=O)[C@H]1[C@@H]2C(=O)NC[C@H](O)c1ccccc1	Sam68 (KHDRBS1)	Condition met
CC(C)N1C(=O)c2ccccc2[C@](C)(C(=O)NCCCN(C)C)[C@@H]1c1ccc(CO)cc1	Sam68 (KHDRBS1)	Condition not met
COC(=O)[C@@]1(Cc2ccc(OC)cc2)[C@H]2c3cc(C(=O)N(C)C)n(CCSCCO)c3C[C@H]2CN1C(=O)c1ccccc1	Sam68 (KHDRBS1)	Condition met
C=C(CCCC)C(=O)CC[C@H](OC(=O)c1ccccc1-c1ccccc1C(=O)O)c1ccc(CO)o1	Sam68 (KHDRBS1)	Condition met

q: State whether the measured composite z-score reaches 0.6, counting equality as reaching it, for CC(c1ccccc1)C(O)C1C=CC2C(=O)N(c3ccccc3)C(=O)C2N1Nc1ccccc1F (stereo not given)
a: Condition met

q: State whether the measured composite z-score reaches 0.6, counting equality as reaching it, for COc1ccc([Si](C)(C)[C@H]2[C@H](CCO)O[C@@]3(C(=O)N(Cc4ccccc4)c4ccc(N5C(=O)COc6ccccc65)cc43)[C@@H]2C)cc1
a: Condition not met

q: State whether the measured composite z-score reaches 0.6, counting equality as reaching it, for CC(C)[C@H]1COC(=O)N1C(=O)[C@H]1[C@@H](c2ccccc2)N(c2ccccc2)O[C@@H]1C
a: Condition met

q: State whether the measured composite z-score reaches 0.6, counting equality as reaching it, for C=CCNC(=O)[C@@H]1[C@H]2C(=O)O[C@H](c3ccccc3)[C@H](c3ccccc3)N2[C@H](c2ccccc2OCCO)[C@@]12C(=O)N(C(=O)OCCOC)c1ccc(C#CCC(C(=O)OC)C(=O)OC)cc12
a: Condition met

q: State whether the measured composite z-score reaches 0.6, counting equality as reaching it, for CN(C)CCCCNC(=O)[C@@H]1C[C@@H]2C(=O)N[C@@H](CCCCN)C(=O)N2[C@@H]1c1cccc(OCCO)c1
a: Condition not met
